Cited source: PubChem BioAssay (NCI)

System: HCT-15 colon
test_summary: NCI tumour cell line growth inhibition, 48 h
Please respond with reported TGI for every item in the list.
# value in µM; strip the unit string

Entry "CCCCCCCCCCNC(=O)CI" needs its TGI filled in; supply it. 3.31

Return reported TGI. Input compound: "CCOC(=O)C1(C(=O)OCC)COS(=O)OC1" 54.6

----------
Can you tell me GI50 for the items I'm about to list?
Test system: T-47D breast
test_summary: NCI tumour cell line growth inhibition, 48 h

Please report the measured GI50 for "CCCc1cc(=O)n2c(C(=O)Nc3ccc(Cl)cc3C)c(C(=O)Nc3ccc(F)cc3)sc2n1" 20 µM

Look up and state reported GI50 for "O=C(Nc1cc(Cl)ccc1O)c1ccc(Nc2ccnc(C(F)(F)F)c2)cc1" 1.76 µM

Consider the compound "CC(C)[C@H](O)C(=O)N[C@@H](C)C(=O)N[C@@H]1C(=O)N(C)CCc2ccccc21" . State its measured GI50. > 100 µM

Provide measured GI50 value, entry: "CC(C)c1[nH]nc2c1N=C(c1ccccc1Cl)c1cc([N+](=O)[O-])ccc1N2" 8.75 µM

Indicate its recorded GI50; the compound in question is "O=C(O)c1cccc(COc2ccc([N+](=O)[O-])cc2Cl)c1" > 100 µM

Assign GI50 to the following record: "CCCC/C(=C\C1=C(C)C(=O)C(OC)=C(OC)C1=O)C(=O)O" 33.2 µM

Return the recorded GI50 value; entry: "COc1cc2c(/C=N\N=C(N)N)c[nH]c2cc1C" 11.7 µM

Quick one: give measured GI50 for "CCN(CC)CCCCCCNc1cccc2cc(Br)cnc12" 5.31 µM

Retrieve GI50 measured for "NNCCc1ccc(NC(=O)CCCc2ccc(C(=O)Nc3ccccc3N)cc2)cc1" and print it. 4.34 µM

Give GI50 for the following compound: "Cc1cc(N/N=C/c2ccccn2)nc2ccccc12" 0.376 µM

Give the reported GI50 for this compound. "Cc1cc(Nc2nc(-c3cn(-c4ccc(Cl)cc4)nn3)nc3ccccc23)n[nH]1" 13.1 µM

----------
Tested on: HL-60(TB) leukemia
test_summary: NCI tumour cell line growth inhibition, 48 h
Can you tell me TGI for the items I'm about to list?

Look up and state reported TGI for CCC/C=C/C=C/C1CC(O)C(O)C(=O)C1CO (centres undefined) > 100 µM

Identify the reported TGI for the following entry. C/C1=C\CC[C@@]2(C)O[C@@H]2C[C@@H](C2(C)CO2)CC/C(C)=C/CC1 (some centres undefined) 71.9 µM

Consider the compound "Nc1cc(Br)c(-c2nnc(CCC(=O)c3nc4ccccc4[nH]3)o2)c(Br)c1" . State its measured TGI. > 100 µM

For the compound CC1(C)C2CC(=O)C1(C)C(O)C2Br (centres undefined) , give its measured TGI value. > 100 µM

----------
Tested on: SR leukemia
test_summary: NCI tumour cell line growth inhibition, 48 h
Task for the reader: assign each of the following compounds its reported GI50.

Write down GI50 measured for item "Cc1ccc(OCCOCCOCCOCCOc2ccc(C)n(O)c2=S)c(=S)n1O" 0.0616 µM

Tell me its GI50 given "COc1cc2c(Nc3cc(Cl)c(OC)c(Cl)c3)c(C#N)cnc2cc1OCCCN1CCN(C)CC1" as the entry. 1.53 µM

Determine from records and report GI50 for "O=C1Nc2ccccc2/C1=C1\CCc2cc(O)ccc21" 4.25 µM

Answer with the recorded GI50 of "O=C(/C(=C\c1c(-c2ccccc2)[nH]c2ccccc12)S(=O)(=O)c1ccccc1)c1ccccc1" only. 9.91 µM

Consider the compound "CCCc1cc(=O)n2c(C(=O)Nc3ccc(Cl)cc3C)c(C(=O)Nc3ccc(F)cc3)sc2n1" . State its measured GI50. 0.943 µM

Give the value of GI50 reported for the following: "NNCCc1ccc(NC(=O)CCCc2ccc(C(=O)Nc3ccccc3N)cc2)cc1" 3.24 µM

Fill in reported GI50 for this entry: "CC(C)[C@H](O)C(=O)N[C@@H](C)C(=O)N[C@@H]1C(=O)N(C)CCc2ccccc21" > 100 µM

Report GI50 for "CCCCCCCCCCNC(=O)CI" 0.204 µM

Name the recorded GI50 of the compound listed here: "Nc1cc(Br)c(-c2nnc(CCC(=O)c3nc4ccccc4[nH]3)o2)c(Br)c1" 4.2 µM

Specify GI50 for "CCN(CC)CCCCCCNc1cccc2cc(Br)cnc12" and stop. 3.04 µM

State its GI50: "O=C(Nc1cc(Nc2ncccc2-c2ncnc3nc[nH]c23)ccc1F)c1cc(C(F)(F)F)cc(C(F)(F)F)c1" 2.09 µM

----------
System: SK-OV-3 ovarian
test_summary: NCI tumour cell line growth inhibition, 48 h
For each entry below, report its GI50 value.

Supply reported GI50 belonging to this compound: "O=C(/C(=C\c1c(-c2ccccc2)[nH]c2ccccc12)S(=O)(=O)c1ccccc1)c1ccccc1" 7.63 µM

Please indicate GI50 recorded for "N#CCCN1C/C(=C/c2ccc(Br)cc2)C(=O)/C(=C/c2ccc(Br)cc2)C1" 2.93 µM

Give the value of GI50 reported for the following: "O=C1CCCN1c1ccccc1I(=O)=O" > 100 µM

Please report the measured GI50 for "NNCCc1ccc(NC(=O)CCCc2ccc(C(=O)Nc3ccccc3N)cc2)cc1" 18.2 µM

Return value of GI50 for input "CC(C)c1[nH]nc2c1N=C(c1ccccc1Cl)c1cc([N+](=O)[O-])ccc1N2" , no commentary. 10.1 µM

----------
System: HL-60(TB) leukemia
test_summary: NCI tumour cell line growth inhibition, 48 h
readout_kind: TGI (µM)
Provide only the numeric value, understood in µM.

Respond only with TGI recorded for "O=C(c1ccco1)c1c(C(F)(F)F)n([O-])c2ccc(C(F)(F)F)cc2[n+]1=O" 0.31

Please give measured TGI of the following entry: "Oc1[nH]c2ccc(Br)cc2c1N=NC(=S)Nc1ccc(F)cc1" 6.84

----------
Tested on: A498 renal
test_summary: NCI tumour cell line growth inhibition, 48 h
readout_kind: TGI (µM)
The answer is to be given in µM; state only the numeric part.

Specify TGI for "C=CC(=O)N1CN(C(=O)C=C)CN(C(=O)C=C)C1" , system A498 renal. 32.4

Report TGI on A498 renal for this entry: "ClCCN(CCCl)c1ccc(CNc2ccccc2)cc1" 24.3

Provide TGI, system A498 renal, entry CC1CC(O)C(=O)C(O[C@@H]2C[C@@H]3CC[C@@H]4[C@H](CC[C@]5(C)C(C6=CC(=O)OC6)CC[C@]45O)[C@@]3(C=O)C[C@H]2O)O1 (stereo not given in full) 0.232

With A498 renal as the test system, provide measured TGI for this compound: "N/C(=N\S(=O)(=O)c1c(C(F)(F)F)cccc1C(F)(F)F)Nc1ccc(Cl)cc1" 50.6

Report the value of TGI obtained on A498 renal for "CC1(C)CN=C(NN=C(/C=C/c2ccc(C(F)(F)F)cc2)/C=C/c2ccc(C(F)(F)F)cc2)NC1" . 2.78

----------
Test system: SNB-75 CNS
test_summary: NCI tumour cell line growth inhibition, 48 h
readout_kind: TGI

Report TGI, nothing else, for this compound: "S=C(/N=c1\sc(Nc2ccc(Cl)cc2)nc2sc3c(c12)CCN(N1CCc2c(sc4nc(Nc5ccc(Cl)cc5)s/c(=N\C(=S)Nc5ccc(Cl)cc5)c24)C1)C3)Nc1ccc(Cl)cc1" 64.5 µM

Determine from records and report TGI for O=C1Sc2ccccc2C(=O)N2CSCC12 (stereo not drawn) > 100 µM

Dear colleague, please send me the reported TGI for "Cc1cccc(C2=C/C(=C(\SS/C(C(=O)c3ccc(OCC(=O)O)c(Cl)c3Cl)=C3\C=C(c4cccc(C)c4)SS3)C(=O)c3ccc(OCC(=O)O)c(Cl)c3Cl)SS2)c1" when you can. > 83.5 µM

For the compound "CCc1c[n+]([O-])c(C)cc1[N+](=O)[O-]" , report TGI. > 100 µM

# return recorded TGI for input "C[C@@H](Cl)[C@H]1CCCN(Cc2ccc(Br)cc2)C1" > 12.5 µM

Return TGI (reported value) for this compound: CC1CN=C(N(C(=O)Nc2ccc(F)c(Cl)c2)c2ccccc2)S1 (stereo not drawn) 63.7 µM

Please give measured TGI of the following entry: CCOC(=O)NC(=O)c1cn(C(CC)COC(=O)NCCCCCCNC(=O)OCC(CC)n2cc(C(=O)NC(=O)OCC)c(=O)[nH]c2=O)c(=O)[nH]c1=O (stereo not drawn) > 100 µM

Consider the compound "N/C(=N\S(=O)(=O)c1c(C(F)(F)F)cccc1C(F)(F)F)Nc1ccc(Cl)cc1" and give its recorded TGI. > 100 µM

----------
For each record, write down the corresponding GI50.
Tested on: UACC-257 melanoma
test_summary: NCI tumour cell line growth inhibition, 48 h

Output reported GI50 of the molecule CC(C)(C)[Si](C)(C)OC1[C@@H](CNC(=O)NC(=O)CCl)O[C@@H](n2cnc3c(N)ncnc32)[C@H]1O[Si](C)(C)C(C)(C)C (stereo partly specified) on UACC-257 melanoma. 2.65 µM

Please indicate recorded GI50 of "N#CCCN1C/C(=C/c2ccc(Br)cc2)C(=O)/C(=C/c2ccc(Br)cc2)C1" measured with UACC-257 melanoma. 2.09 µM

Report value only: GI50, UACC-257 melanoma, "CCc1ccc2c(c1)C(=O)c1c-2n(CCCN=[N+]=[N-])c(=O)c2cc([N+](=O)[O-])ccc12" > 50 µM

Please tell me the measured GI50 for "COc1cc(/C=C\c2cc(OC)c(OC)c(OC)c2)cc(N/C=C\C(=O)c2c[nH]c3ccccc23)c1OC" ; system: UACC-257 melanoma. 3.17 µM

Report value only: GI50, UACC-257 melanoma, "C#CCOc1cccc(Nc2ncnc3c(NC(=O)C=C)cccc23)c1" 31.4 µM

Specify GI50 for "c1ccc2c(c1)[nH]c1c2cc[n+]2cc3c(cc12)CCCC3" , system UACC-257 melanoma. 2.09 µM

Provide GI50, recorded with UACC-257 melanoma, of "CCN(CC)CCCCCCNc1cccc2cc(Br)cnc12" 3.28 µM

For UACC-257 melanoma, give the measured GI50 of the entry "O=C1CCCN1c1ccccc1I(=O)=O" > 100 µM

Please report GI50 with UACC-257 melanoma for item "O=C1c2ccccc2-c2c1c1ccccc1c(=O)n2CCN1CCNCC1" . 4.98 µM

Provide UACC-257 melanoma GI50 reading for "ClCCN(CCCl)c1ccc(CNc2ccccc2)cc1" . 12.7 µM

Name the recorded GI50 of "COc1cc2cc(Oc3ccc(NC(=O)c4cc(C(F)(F)F)cc(C(F)(F)F)c4)cc3)c(C)nc2cc1OC" , assay system UACC-257 melanoma. 4.07 µM
